Species: Homo sapiens
protocol: Selectivity ratio of EC50 for inhibition of EGF-induced phosphorylation of wild type EGFR in human NCI-H1975 cells to EC50 for inhibition of EGF-induced phosphorylation of EGFR T790M/L858R double mutant in human NCI-H1975 cells preincubated for 120 mins followed by EGF stimulation and measured after 10 mins by ELISA
Assay type: cell-based
condition: time 130.0 min
The molecules listed here are annotated with their Ratio EC50.
Hey, just send me the number, nothing else.

Illustrative cases are given below, each with its answer.
chemical-structure	Ratio EC50
C=CC(=O)N1CCC2(CC1)CNC(=O)c1cc(-c3nc(Nc4ccccc4OC)ncc3C)[nH]c12	14
C=CC(=O)N1CCC2(CC1)CNC(=O)c1cc(-c3nc(Nc4ccccc4OC)ncc3Cl)[nH]c12	89
C=CC(=O)N1CCC2(CC1)CNC(=O)c1cc(-c3ccnc(Nc4ccccc4OC)n3)[nH]c12	7.7

So for C=CC(=O)N1CCC2(CC1)CNC(=O)c1cc(-c3ccnc(Nc4ccccc4OC(C)C)n3)[nH]c12 , the logged Ratio EC50 turned out to be 64
